# Test system: Escherichia coli
# assay_summary: Binding affinity to Escherichia coli sliding clamp assessed as dissociation rate constant by ITC analysis
*1 amine or outer side, *2 acyl side, *3 side chain or, on linkers, in order; H or OH if unused. Where a SMILES comes first, the peptide text is derived from it. [ ]: non-standard residue; d: D form. NEtAsp = CCN([C@@H](CC(=O)[*:3])C(=O)[*:2])[*:1]; X6 = O=C([C@@H]1CC(O)CN1[*:1])[*:2]; NMeQ = CN[C@@H](CCC(N)=O)C(=O)O; Cha = N[C@@H](CC1CCCCC1)C(=O)O
assay_endpoint: K

Study these solved cases before continuing.
>  <compound>
CC(=O)N[C@@H](CCC(N)=O)C(=O)N[C@@H](CC1CCCCC1)C(=O)N[C@@H](CC(=O)O)C(=O)N[C@@H](CC(C)C)C(=O)N1CC(O)C[C@H]1C(=O)N[C@@H](CC(C)C)C(=O)O (stereo partly drawn) (Ac-Q[Cha]DL[X6]L-OH)

>  <tested_system>
Escherichia coli

>  <K>
1.7 10^-2/s

$$$$
>  <compound>
CC(=O)N(C)[C@@H](CCC(N)=O)C(=O)N[C@@H](CC1CCCCC1)C(=O)N[C@@H](CC(=O)O)C(=O)N[C@@H](CC(C)C)C(=O)N[C@@H](Cc1ccccc1)C(=O)O (Ac-[NMeQ][Cha]DLF-OH)

>  <tested_system>
Escherichia coli

>  <K>
4.6 10^-2/s

$$$$

Recorded K of CCN(C(=O)[C@H](CC1CCCCC1)NC(=O)[C@H](CCC(N)=O)NC(C)=O)[C@@H](CC(=O)O)C(=O)N[C@@H](CC(C)C)C(=O)N[C@@H](Cc1ccccc1)C(=O)O (Ac-Q[Cha][NEtAsp]LF-OH) , please.
1.3 10^-2/s

----------
# deltaG per record follows
# System: Escherichia coli
# assay_summary: Binding affinity to Escherichia coli sliding clamp assessed as gibbs free energy change by ITC analysis
Where a SMILES comes first, the peptide text is derived from it. [ ]: non-standard residue; d: D form. The star is where a group is joined. Acetyl(1-naphthyl) = O=C(Cc1cccc2ccccc12)*; Cha = N[C@@H](CC1CCCCC1)C(=O)O; X1 = O=C(/C=C/c1ccccc1)*
Respond numerically; units are kcal/mol and should not be typed.

>  <molecule>
CC(C)C[C@H](NC(=O)[C@H](CC(=O)O)NC(=O)[C@H](CC1CCCCC1)NC(=O)[C@H](CCC(N)=O)NC(=O)Cc1cccc2ccccc12)C(=O)N[C@@H](Cc1ccccc1)C(=O)O ({Acetyl(1-naphthyl)}-Q[Cha]DLF-OH)

>  <unit_string>
kcal/mol

>  <deltaG>
-9.6

$$$$

Recorded deltaG of CC(C)C[C@H](NC(=O)[C@H](CC(=O)O)NC(=O)[C@H](CC1CCCCC1)NC(=O)[C@H](CCC(N)=O)NC(=O)/C=C/c1ccccc1)C(=O)N[C@@H](Cc1ccccc1)C(=O)O (X1-Q[Cha]DLF-OH) , please.
-9.4

----------
# K per record follows
# Test system: Escherichia coli
# assay_summary: Binding affinity to Escherichia coli sliding clamp assessed as dissociation rate constant by ITC analysis
Where a SMILES comes first, the peptide text is derived from it. [ ]: non-standard residue; d: D form. The star is where a group is joined. Acryloyl(3-(3-pyridyl),E) = O=C(/C=C/c1cccnc1)*; Cha = N[C@@H](CC1CCCCC1)C(=O)O; NMeD = CN[C@@H](CC(=O)O)C(=O)O; Pip = O=C(O)[C@@H]1CCCCN1

>  <molecule>
CC(=O)N[C@@H](CCC(N)=O)C(=O)N[C@@H](CC1CCCCC1)C(=O)N[C@@H](CC(=O)O)C(=O)N[C@@H](CC(C)C)C(=O)N1CCCC[C@H]1C(=O)N[C@@H](CC(C)C)C(=O)O (Ac-Q[Cha]DL[Pip]L-OH)

>  <result>
1 10^-2/s

$$$$

--- query ---
Recorded K of CC(C)C[C@H](NC(=O)[C@@H]1CCCN1C(=O)[C@H](CC(C)C)NC(=O)[C@H](CC(=O)O)N(C)C(=O)[C@H](CC1CCCCC1)NC(=O)[C@H](CCC(N)=O)NC(=O)/C=C/c1cccnc1)C(=O)O ({Acryloyl(3-(3-pyridyl),E)}-Q[Cha][NMeD]LPL-OH) , please.
1.1 10^-2/s

----------
# K per record follows
# Test system: Escherichia coli
# assay_summary: Binding affinity to Escherichia coli sliding clamp assessed as dissociation rate constant by ITC analysis
*1 amine or outer side, *2 acyl side, *3 side chain or, on linkers, in order; H or OH if unused. Where a SMILES comes first, the peptide text is derived from it. [ ]: non-standard residue; d: D form. The star is where a group is joined. Acryloyl(3-(3-pyridyl),E) = O=C(/C=C/c1cccnc1)*; Phe(3,4-Cl2) = N[C@@H](Cc1ccc(Cl)c(Cl)c1)C(=O)O; Acetyl(1-naphthyl) = O=C(Cc1cccc2ccccc12)*; Cinnamoyl(4-F) = O=C(/C=C/c1ccc(F)cc1)*; NH(4-MeO-phenyl) = COc1ccc(N*)cc1; NMeR = CN[C@@H](CCCNC(=N)N)C(=O)O; X2 = O=C(CN(Cc1ccccn1)[*:1])[*:2]; Cha = N[C@@H](CC1CCCCC1)C(=O)O; NMeD = CN[C@@H](CC(=O)O)C(=O)O; X5 = CN(C)C(=NCC(=O)*)N(C)C; X1 = O=C(/C=C/c1ccccc1)*; CO = O=C([*:1])[*:2]

Study these solved cases before continuing.
>  <compound>
CC(C)C[C@H](NC(=O)[C@H](CC(=O)O)N(C)C(=O)[C@H](CC1CCCCC1)NC(=O)[C@H](CCC(N)=O)NC(=O)/C=C/c1cccnc1)C(=O)N[C@@H](Cc1ccc(Cl)c(Cl)c1)C(=O)O ({Acryloyl(3-(3-pyridyl),E)}-Q[Cha][NMeD]L[Phe(3,4-Cl2)]-OH)

>  <tested_system>
Escherichia coli

>  <K>
5.5 10^-3/s

$$$$
>  <compound>
CC(C)C[C@H](NC(=O)[C@H](CC(=O)O)NC(=O)[C@H](CC1CCCCC1)NC(=O)[C@H](CCC(N)=O)NC(=O)CN=C(N(C)C)N(C)C)C(=O)N[C@@H](Cc1ccccc1)C(=O)O (X5-Q[Cha]DLF-OH)

>  <tested_system>
Escherichia coli

>  <K>
1.1 10^-2/s

$$$$
>  <compound>
CC(=O)N[C@@H](CCC(N)=O)C(=O)N[C@@H](CC1CCCCC1)C(=O)N(C)[C@@H](CC(=O)O)C(=O)N[C@@H](CC(C)C)C(=O)N1CCC[C@H]1C(=O)N[C@@H](CC(C)C)C(=O)O (Ac-Q[Cha][NMeD]LPL-OH)

>  <tested_system>
Escherichia coli

>  <K>
2.3 10^-2/s

$$$$

What K appears in the records for this compound with Escherichia coli? CC(C)C[C@H](NC(=O)[C@H](CC(=O)O)NC(=O)[C@H](CC1CCCCC1)NC(=O)[C@H](CCC(N)=O)NC(=O)/C=C/c1ccc(F)cc1)C(=O)N[C@@H](Cc1ccccc1)C(=O)O ({Cinnamoyl(4-F)}-Q[Cha]DLF-OH)
6.3 10^-3/s

What K appears in the records for this compound with Escherichia coli? CC(C)C[C@H](NC(=O)[C@H](CC(=O)O)NC(=O)[C@H](CC1CCCCC1)NC(=O)[C@H](CCC(N)=O)NC(=O)Cc1cccc2ccccc12)C(=O)N[C@@H](Cc1ccccc1)C(=O)O ({Acetyl(1-naphthyl)}-Q[Cha]DLF-OH)
5.7 10^-3/s

What K appears in the records for this compound with Escherichia coli? COc1ccc(NC(=O)N[C@@H](CCC(N)=O)C(=O)N[C@@H](CC2CCCCC2)C(=O)N[C@@H](CC(=O)O)C(=O)N[C@@H](CC(C)C)C(=O)N[C@@H](Cc2ccccc2)C(=O)O)cc1 ({NH(4-MeO-phenyl)-CO}-Q[Cha]DLF-OH)
2.8 10^-3/s

What K appears in the records for this compound with Escherichia coli? CC(C)C[C@H](NC(=O)[C@H](CC(=O)O)NC(=O)[C@H](CC1CCCCC1)NC(=O)[C@H](CCC(N)=O)NC(=O)/C=C/c1ccccc1)C(=O)N[C@@H](Cc1ccccc1)C(=O)O (X1-Q[Cha]DLF-OH)
6.5 10^-3/s

What K appears in the records for this compound with Escherichia coli? CC(=O)N(C)[C@@H](CCCNC(=N)N)C(=O)N[C@@H](CCC(N)=O)C(=O)N[C@@H](CC1CCCCC1)C(=O)N(C)[C@@H](CC(=O)O)C(=O)N[C@@H](CC(C)C)C(=O)N[C@@H](Cc1ccc(Cl)c(Cl)c1)C(=O)O (Ac-[NMeR]Q[Cha][NMeD]L[Phe(3,4-Cl2)]-OH)
9.4 10^-3/s

What K appears in the records for this compound with Escherichia coli? CC(C)C[C@H](NC(=O)[C@H](CC(=O)O)NC(=O)[C@H](CC1CCCCC1)NC(=O)[C@H](CCC(N)=O)NC(=O)CNCc1ccccn1)C(=O)N[C@@H](Cc1ccccc1)C(=O)O (H-[X2]Q[Cha]DLF-OH)
5.7 10^-3/s
